Values were extracted from patent US11028172.

# koff per entry
Molecular target: T1, human TIGIT-His protein (human, UniProt Q495A1 22-141)
T1 construct: Recombinant protein; also called human TIGIT-his tag; hTIGIT-His
T1 sequence (looked up): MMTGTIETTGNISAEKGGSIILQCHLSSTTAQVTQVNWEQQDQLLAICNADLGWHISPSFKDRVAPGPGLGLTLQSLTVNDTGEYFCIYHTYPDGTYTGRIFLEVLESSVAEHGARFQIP
Test: SPR (Biacore) affinity ranking, human TIGIT-His
Provide only the numeric value, understood in s⁻¹.

// below: answered binders
| binder | measurement unit | koff |
| --- | --- | --- |
| 76D12B10-Hu02 (antibody, V domains shown, Humanized, VH.V2 + VK.V0) VH: EVQLQESGPGLVKPSETLSLTCAVSGYSISSGYDWHWIRQPPGKGLEWIGFIRDSGSTVYNPSLKGRITISHDTSKNQFSLKLSSVTAADTAVYYCARGLFWYFDVWGQGTTVTVSS VL: DIQMTQSPSSLSASVGDRVTITCRTSENIFSYLAWYQQKPGKVPKLLIYNTKTLAEGVPSRFSGSGSGTDFTLTISSLQPEDVATYYCQHHYGNPLTFGQGTKLEIK | s⁻¹ | 9.74e-05 |
| 76D12B10-Hu05 (antibody, V domains shown, Humanized, VH.V5 + VK.V0) VH: EVQLQESGPGLVKPSETLSLTCAASGYSITSGYDWHWIRQPPGKKLEWMGFIRDSGSTVYNPSLKGRITISHDTSKNQFSLKLSSVTAADTAVYFCARGLFWYFDVWGQGTTVTVSS VL: DIQMTQSPSSLSASVGDRVTITCRTSENIFSYLAWYQQKPGKVPKLLIYNTKTLAEGVPSRFSGSGSGTDFTLTISSLQPEDVATYYCQHHYGNPLTFGQGTKLEIK | s⁻¹ | 9.75e-05 |
| 76D12B10-Hu07 (antibody, V domains shown, Humanized, VH.V2 + VK.V1) VH: EVQLQESGPGLVKPSETLSLTCAVSGYSISSGYDWHWIRQPPGKGLEWIGFIRDSGSTVYNPSLKGRITISHDTSKNQFSLKLSSVTAADTAVYYCARGLFWYFDVWGQGTTVTVSS VL: DIQMTQSPSSLSASVGDRVTITCRTSENIFSYLAWYQQKPGKVPKLLIHNTKTLAEGVPSRFSGSGSGTDFTLTISSLQPEDVATYYCQHHYGNPLTFGQGTKLEIK | s⁻¹ | 8.93e-05 |

# get_value(readout='koff', item= 76D12B10-Hu12 (antibody, V domains shown, Humanized, VH.V2 + VK.V2) VH: EVQLQESGPGLVKPSETLSLTCAVSGYSISSGYDWHWIRQPPGKGLEWIGFIRDSGSTVYNPSLKGRITISHDTSKNQFSLKLSSVTAADTAVYYCARGLFWYFDVWGQGTTVTVSS VL: DIQMTQSPSSLSASVGDRVTITCRTSENIFSYLAWYQQKPGKVPKLLVHNTKTLAEGVPSRFSGSGSGTDFTLTISSLQPEDVATYYCQHHYGNPLTFGQGTKLEIK )
0.00014

Field request: koff | item: 76D12B10-Hu03 (antibody, V domains shown, Humanized, VH.V3 + VK.V0) VH: EVQLQESGPGLVKPSETLSLTCAVSGYSISSGYDWHWIRQPPGKGLEWMGFIRDSGSTVYNPSLKGRITISHDTSKNQFSLKLSSVTAADTAVYYCARGLFWYFDVWGQGTTVTVSS VL: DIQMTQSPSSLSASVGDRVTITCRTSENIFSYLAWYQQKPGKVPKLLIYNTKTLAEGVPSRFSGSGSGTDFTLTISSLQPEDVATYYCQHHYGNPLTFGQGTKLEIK
0.00015
